assay.method.text: late stage P. falciparum gametocyte viability inhibitors, primary screen, ATP luminescence, HTS (AID 743093);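 also: 0% = DMSO wells and 100% = medium only without gametocytes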
conditions: P. falciparum stage V gametocytes, 24 h, at 10.9 µM, stronger effect = higher value
Among all 150,000 compounds or so, about 100 (0.067%) were called active. This is one part of a sample in which actives are shown more often than they occur.
reported.endpoint: inhibition (%)
The response must be a number in % with no trailing unit.

Illustrative cases are given below, each with its answer.
>>> print(df.to_string())
                            chemical_string  result
0  COc1cc(OC)cc(-c2c(-c3cccs3)c3cc(-c4ccc(OC)nc4)ccc3n2C)c1   -3.15
1     O=C(CCc1ccccc1)Nc1ncc([N+](=O)[O-])s1   -11.7
2      CCCNC(=O)CSc1nc(Cc2ccccc2)nc2ccccc12   -0.29
3  O=C(N[C@@H]1C/C=C\C[C@@H](CC(=O)N(CCO)Cc2ccccc2)C(=O)N[C@H](Cc2ccccc2)COC1=O)OCC1c2ccccc2-c2ccccc21   -0.76
4              CN(c1ccccn1)c1ncnc2[nH]ncc12    2.58

Next molecule, inhibition to be filled in.
stdin: Value lookup for inhibition; key = Cc1cccc(C(=O)N2CCC(c3nc4ccccc4s3)CC2)c1
stdout: 13

----------
assay.method.text: late stage P. falciparum gametocyte viability inhibitors, primary screen, ATP luminescence, HTS (AID 743093);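 also: 0% = DMSO wells and 100% = medium only without gametocytes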
conditions: P. falciparum stage V gametocytes, 24 h, at 10.9 µM, stronger effect = higher value
Among all 150,000 compounds or so, about 100 (0.067%) were called active. The full list was thinned out, with actives kept by preference.
Items are presented alongside their recorded inhibition.
Write it as a number; the unit % goes unstated.

The following molecules have reported results that may help.
                                   molecule  reported_endpoint  result
0             O=C(C1CCC1)N1CCN(c2ccccc2)CC1         inhibition    10.5
1  O=C(CC(c1ccccc1)c1cc(Cl)ccc1O)NCCN1CCOCC1 (stereo unspecified)         inhibition   -8.49
2  Cc1cc(F)ccc1N1CCC(N2CCN(C)C(CCO)C2)CC1 (stereo unspecified)         inhibition   -11.3

stdin: Look at this molecule and give its reported inhibition. O=C(O)c1ccccc1C(=O)Nc1nc(-c2ccccc2)cs1
stdout: 3.62

stdin: Param item: COc1ccccc1C(=O)Nn1cnnc1
stdout: -1.75

stdin: Same again, this time with CCCc1ccc(OCCNC(=O)c2ccccc2Br)cc1
stdout: 17.8

----------
assay.method.text: late stage P. falciparum gametocyte viability inhibitors, primary screen, ATP luminescence, HTS (AID 743093);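 also: 0% = DMSO wells and 100% = medium only without gametocytes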
conditions: P. falciparum stage V gametocytes, 24 h, at 10.9 µM, stronger effect = higher value
Out of some 150,000 compounds screened, about 100 (0.067%) were called active. Many of the other results were omitted from the sample, so actives are more common in it than they were.
reported.endpoint: inhibition (%)
Value expressed in %; do not type the unit.

Example results:
>>> print(df.to_string())
                                   molecule  result
0  O=C1NC[C@@H](c2ccccc2)OC(=O)[C@H](Cc2ccc(F)cc2)CC/C=C/C[C@H]1CC(=O)N(CCO)Cc1ccccc1    4.53
1  COc1ccc(CN(Cc2ccc(OC)cc2)C(=O)c2cccs2)cc1    2.88
2  CCOC(=O)C1(Cc2ccccc2C)CCCN(S(C)(=O)=O)C1 (stereo not given)   -3.76
3  Cc1cccc(NC(=O)C(C)SCc2ccccc2)c1 (stereo not given)   -2.36
4  Cc1cc(-c2n[nH]c(=S)n2/N=C/c2ccco2)n[nH]1    9.38
5  C=CC[C@@H](CC(=O)N[C@@H](CO)Cc1ccccc1)C(=O)NCCOC(=O)[C@@H](CC=C)CC(=O)OC(C)(C)C   -18.1

stdin: # lookup: inhibition of CC(=O)N1CCC(N(C(=O)Nc2ccc(Cl)cc2)C(C)C)CC1
stdout: -9.52

stdin: Next record, please: COc1ccccc1C(=O)Nc1ccc(Nc2ccccc2)cc1
stdout: -11.9

stdin: How about this molecule: O=C(N[C@@H](Cc1ccccc1)C(=O)OCc1ccccc1)c1nc[nH]c1C(=O)N[C@@H](Cc1ccccc1)C(=O)OCc1ccccc1
stdout: 0.44

stdin: Can you check O=C(CN1CCN(c2ccc(F)cc2)CC1)Nc1ccccc1 next?
stdout: -14.6
